All figures here come from patent US20090304692A1.

Measured IC50, listed per entry for reference.
- test-system: UniProt:P48736
- run-description: PI3K-gamma fluorescence polarization assay
- cond: read-out: IC50 PI3Kγ

Query: IC50 for O=C(Nc1ccc(C(=O)NC2CN3CCC2CC3)cc1)Nc1ccc(-c2nc(N3CCOCC3)nc(N3CCOCC3)n2)cc1 (stereo not shown) [Example 73] ?
Result: 7 nM

Query: Cool, now O=C(NCCO)Nc1ccc(-c2nc(N3CCOCC3)nc(N3C4CCC3COC4)n2)cc1 [Example 45]
Result: 2080 nM

Query: Consider next the molecule CN(C)CCCNC(=O)c1ccc(NC(=O)Nc2ccc(-c3nc(N4CCCCC4)nc(N4CCOCC4)n3)cc2)cc1 [Example 610] in the same way.
Result: 50.5 nM

Query: Now this one: CN1CCN(C(=O)c2ccc(NC(=O)Nc3ccc(-c4nc(N5CCCC5)nc(N5CCOCC5)n4)cc3)cc2)CC1 [Example 607]
Result: 94 nM

Query: Then this molecule: O=C(Nc1ccncc1)Nc1ccc(-c2nc(-c3cccs3)nc(N3CCOCC3)n2)cc1 [Example 557]
Result: 64 nM

Query: And COCCNC(=O)c1ccc(NC(=O)Nc2ccc(-c3nc(N4CCCOCC4)nc(N4CCOCC4)n3)cc2)cc1 [Example 574] ?
Result: 12.5 nM

Query: Moving on to the next molecule: CC(C)N1CCN(C(=O)c2ccc(NC(=O)Nc3ccc(-c4nc(N5CCOCC5)nc(N5C6CCC5COC6)n4)cc3)cc2)CC1 [Example 754]
Result: 28 nM

* * *

- test-system: PI3K-γ (Homo sapiens)
- Sequence (P48736 whole entry, species assumed): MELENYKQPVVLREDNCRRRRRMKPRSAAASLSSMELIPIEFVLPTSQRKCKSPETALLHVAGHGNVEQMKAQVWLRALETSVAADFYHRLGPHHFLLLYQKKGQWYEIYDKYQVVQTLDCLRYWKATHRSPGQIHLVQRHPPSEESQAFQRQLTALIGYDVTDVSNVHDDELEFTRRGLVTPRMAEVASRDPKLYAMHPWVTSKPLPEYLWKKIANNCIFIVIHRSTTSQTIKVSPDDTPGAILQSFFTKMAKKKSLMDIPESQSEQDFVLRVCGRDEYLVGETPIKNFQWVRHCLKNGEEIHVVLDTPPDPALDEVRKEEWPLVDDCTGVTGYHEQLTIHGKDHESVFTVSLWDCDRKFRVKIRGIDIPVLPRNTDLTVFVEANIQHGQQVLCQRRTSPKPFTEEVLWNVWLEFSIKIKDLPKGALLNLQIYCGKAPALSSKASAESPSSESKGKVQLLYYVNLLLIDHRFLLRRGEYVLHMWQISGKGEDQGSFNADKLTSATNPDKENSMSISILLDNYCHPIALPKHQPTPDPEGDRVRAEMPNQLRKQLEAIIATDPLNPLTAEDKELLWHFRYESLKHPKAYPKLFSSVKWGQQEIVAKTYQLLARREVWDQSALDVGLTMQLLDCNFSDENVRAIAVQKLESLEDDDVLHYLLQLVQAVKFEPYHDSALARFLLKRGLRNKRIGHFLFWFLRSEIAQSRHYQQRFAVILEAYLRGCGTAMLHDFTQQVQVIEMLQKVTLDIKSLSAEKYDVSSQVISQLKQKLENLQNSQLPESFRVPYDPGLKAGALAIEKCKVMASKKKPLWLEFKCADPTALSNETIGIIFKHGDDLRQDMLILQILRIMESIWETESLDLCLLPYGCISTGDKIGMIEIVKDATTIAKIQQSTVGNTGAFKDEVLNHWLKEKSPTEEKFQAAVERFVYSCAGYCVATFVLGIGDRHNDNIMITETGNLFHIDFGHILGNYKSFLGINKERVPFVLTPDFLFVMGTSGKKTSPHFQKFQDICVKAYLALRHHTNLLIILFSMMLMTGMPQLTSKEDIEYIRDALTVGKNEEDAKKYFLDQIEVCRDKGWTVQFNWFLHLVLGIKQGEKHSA
- run-description: PI3K-gamma fluorescence polarization assay
- cond: read-out: IC50 PI3Kγ
Assign labels as follows, please: rule met for IC50 below 200 nM; rule not met for IC50 equal to or exceeding 200 nM.

Answered examples (5):
CCC(C)N1CCN(C(=O)c2ccc(NC(=O)Nc3ccc(-c4nc(N5CCOC[C@@H]5C)nc(N5CCOC[C@@H]5C)n4)cc3)cc2)CC1 (some centres unmarked) ... rule met
CN(C)CCNC(=O)c1ccc(NC(=O)Nc2ccc(-c3nc(N4CCOCC4)nc(N4CC5CCC4CO5)n3)cc2)cc1 (centres unmarked) ... rule met
Cc1ccc(NC(=O)Nc2ccc(-c3nc(N4CCOCC4)nc(N4CC5CCC(C4)O5)n3)cc2)cc1 ... rule met
O=C(Nc1ccc(C(=O)NCCN2CCCCC2)cc1)Nc1ccc(-c2nc(N3CCOCC3)nc(N3C4COCC3COC4)n2)cc1 ... rule met
CC(C)(C)OC(=O)N1CCN(c2nc(-c3ccc(NC(=O)Nc4ccncc4)cc3)nc(N3CC4CCC(C3)O4)n2)CC1 ... rule not met

Please turn your attention to the following entry.
Query: Field: below-cutoff. Rule: recorded IC50 strictly less than 200 nM. Subject: CC(C)c1nc(-c2ccc(NC(=O)Nc3ccc(-c4cnc(N(C)C)nc4)cc3)cc2)nc(N2CCOCC2)n1
Result: rule not met

* * *

- test-system: PI3K-α (Homo sapiens, UniProt P42336)
- Sequence (P42336 whole entry, species assumed): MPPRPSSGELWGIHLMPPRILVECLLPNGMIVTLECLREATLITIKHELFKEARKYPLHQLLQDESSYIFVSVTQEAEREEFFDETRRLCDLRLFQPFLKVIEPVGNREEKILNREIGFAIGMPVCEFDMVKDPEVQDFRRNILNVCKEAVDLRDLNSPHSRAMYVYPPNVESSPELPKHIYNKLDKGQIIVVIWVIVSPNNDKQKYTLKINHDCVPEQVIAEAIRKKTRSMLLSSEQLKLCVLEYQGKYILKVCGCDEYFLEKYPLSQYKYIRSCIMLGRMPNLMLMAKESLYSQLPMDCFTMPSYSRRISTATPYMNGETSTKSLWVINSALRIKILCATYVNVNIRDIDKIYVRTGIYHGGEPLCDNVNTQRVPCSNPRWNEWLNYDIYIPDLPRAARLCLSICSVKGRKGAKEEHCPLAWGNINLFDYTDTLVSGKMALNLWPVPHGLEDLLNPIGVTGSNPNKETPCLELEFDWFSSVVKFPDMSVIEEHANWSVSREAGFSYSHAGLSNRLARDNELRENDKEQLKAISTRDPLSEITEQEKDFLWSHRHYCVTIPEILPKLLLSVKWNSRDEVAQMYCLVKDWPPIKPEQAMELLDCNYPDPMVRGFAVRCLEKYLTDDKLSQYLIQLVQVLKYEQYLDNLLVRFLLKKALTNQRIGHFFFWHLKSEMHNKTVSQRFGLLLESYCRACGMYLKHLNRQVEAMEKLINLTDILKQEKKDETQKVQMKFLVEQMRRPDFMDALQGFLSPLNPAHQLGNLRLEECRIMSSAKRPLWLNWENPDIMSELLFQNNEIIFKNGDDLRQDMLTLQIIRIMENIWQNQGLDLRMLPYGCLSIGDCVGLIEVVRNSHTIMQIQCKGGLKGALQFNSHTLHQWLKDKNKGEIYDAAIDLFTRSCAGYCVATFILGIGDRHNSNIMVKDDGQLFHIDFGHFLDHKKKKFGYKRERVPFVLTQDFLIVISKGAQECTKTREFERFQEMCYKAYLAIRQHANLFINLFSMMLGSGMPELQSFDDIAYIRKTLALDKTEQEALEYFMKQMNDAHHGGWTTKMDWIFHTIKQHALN
- Sequence (P27986 whole entry partner, species assumed): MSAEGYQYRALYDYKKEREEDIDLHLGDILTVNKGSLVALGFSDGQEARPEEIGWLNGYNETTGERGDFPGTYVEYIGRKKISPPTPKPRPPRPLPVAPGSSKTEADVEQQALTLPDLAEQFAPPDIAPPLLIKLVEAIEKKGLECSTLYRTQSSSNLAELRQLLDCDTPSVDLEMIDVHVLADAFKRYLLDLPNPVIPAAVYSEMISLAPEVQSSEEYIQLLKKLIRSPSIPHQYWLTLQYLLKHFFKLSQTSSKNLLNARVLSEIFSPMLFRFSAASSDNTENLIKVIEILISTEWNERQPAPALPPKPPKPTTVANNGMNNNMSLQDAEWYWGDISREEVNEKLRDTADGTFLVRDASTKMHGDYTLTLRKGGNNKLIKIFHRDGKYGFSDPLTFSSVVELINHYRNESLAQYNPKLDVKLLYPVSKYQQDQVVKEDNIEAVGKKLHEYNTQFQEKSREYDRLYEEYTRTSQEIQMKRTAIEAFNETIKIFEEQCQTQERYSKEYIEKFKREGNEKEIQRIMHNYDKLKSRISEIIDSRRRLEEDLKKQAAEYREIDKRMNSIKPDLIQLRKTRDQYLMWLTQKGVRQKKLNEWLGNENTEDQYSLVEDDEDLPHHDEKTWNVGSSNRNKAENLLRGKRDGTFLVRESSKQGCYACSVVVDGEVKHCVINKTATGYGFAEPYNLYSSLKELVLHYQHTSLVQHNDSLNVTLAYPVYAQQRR
- run-description: PI3K-alpha fluorescence polarization assay
- cond: read-out: IC50 PI3Kα; listed as 527
quantity-name: IC50
Write the figure, then the unit, nothing else.

Query: Could you share which IC50 value was measured for Cc1ccc(-c2nc(-c3ccc(NC(=O)Nc4ccc(C(=O)O)cc4)cc3)nc(N3CCOCC3)n2)cc1 [Example 342] ?
Result: 20.5 nM
